Kindly state Sugarbeets plant response rating for each of the entries shown.
system: sugar beet; test: Test B pre/postemergence sugar beet; format: in vivo, Beta vulgaris; details: Postemergence, Rate 250 g/ha; scale 0 to 10, 0 no effect, 10 complete control
Answers are plain numbers.

Below, 2 compounds whose answers are already recorded.
{"smiles.data": "Cc1ccccc1-n1c(=O)on(C(=O)N(c2ccc(F)c(F)c2)C(C)C)c1=O", "target.system": "sugar beet", "Sugarbeets plant response rating": 0}
{"smiles.data": "Cc1cccc(C(C)C)c1-n1c(=O)on(C(=O)N(c2ccc(F)cc2)C(C)C)c1=O", "target.system": "sugar beet", "Sugarbeets plant response rating": 0}

Please find the next compound below.
Consider the compound `CCN(CC)C(=O)n1oc(=O)n(-c2cc(Cl)cc(Cl)c2)c1=O` and give its recorded Sugarbeets plant response rating.
0
